Value source: patent US20180086804A1

Target: T1, HLA-DR1 (HLA-DRB1*01:01) (human)
T1 construct: mature; class II HLA molecule purified from homozygous EBV-transformed lymphoblastoid cells with antibody L243
Assay: competition ELISA vs biotin-HA 306-318;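 also: HLA and competitor incubated 24 to 72 h, maximal signal taken from wells lacking competitor, background from wells lacking HLA molecule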
No end group written: not given here.

{"binder": "H-KNVVMVNQGLTKHMT-NH2 (not fully specified) [CCNB1 385-399]", "relative affinity": 4500}
{"binder": "DRFMQNNCVPKKMLQ-NH2 [CCNB1 231-245]", "relative affinity": 11}
{"binder": "SKYEEMYPPEIGDFA-NH2 [CCNB1 256-270]", "relative affinity": 3}
{"binder": "KHMTVKNKYATSKHA-NH2 [CCNB1 396-410]", "relative affinity": 7480}
{"binder": "NKYATSKHAKISTLP-NH2 [CCNB1 402-416]", "relative affinity": 367}
{"binder": "PKYLLGREVTGNMRA-NH2 [CCNB1 189-203]", "relative affinity": 17}
{"binder": "PMLVPVPVSEPVPEP-NH2 [CCNB1 87-101]", "relative affinity": 1500}
{"binder": "EQLQAKMPMKKEAKP-NH2 [CCNB1 54-68]", "relative affinity": 3740}
{"binder": "PNLCSEYVKDIYAYL-NH2 [CCNB1 164-178]", "relative affinity": 2830}
{"binder": "RALNFGLGRPLPLHF-NH2 [CCNB1 291-305]", "relative affinity": 1}
{"binder": "PEIGDFAFVTDNTYT-NH2 [CCNB1 264-278]", "relative affinity": 7000}
{"binder": "LSYTEESLLPVMQHL-NH2 [CCNB1 369-383]", "relative affinity": 212}
{"binder": "EPVKEEKLSPEPILV-NH2 [CCNB1 108-122]", "relative affinity": 894}
{"binder": "SPMETSGCAPAEEDL-NH2 [CCNB1 128-142]", "relative affinity": 3590}
{"binder": "FAFVTDNTYTKHQIR-NH2 [CCNB1 269-283]", "relative affinity": 1340}
